Molecular target: IKCa1 (Homo sapiens)
Experiment: Whole-cell patch-clamp, IKCa1
PROPERTY LABEL: Kd

COc1c(C(C)=O)c(OCc2ccc(COc3c(C(C)=O)c(OC)c4ccoc4c3OC)cc2)c(OC)c2occc12; > 20 µM

====

Biological target: Kv1.4 (Homo sapiens, UniProt P22459)
Sequence (P22459 whole entry): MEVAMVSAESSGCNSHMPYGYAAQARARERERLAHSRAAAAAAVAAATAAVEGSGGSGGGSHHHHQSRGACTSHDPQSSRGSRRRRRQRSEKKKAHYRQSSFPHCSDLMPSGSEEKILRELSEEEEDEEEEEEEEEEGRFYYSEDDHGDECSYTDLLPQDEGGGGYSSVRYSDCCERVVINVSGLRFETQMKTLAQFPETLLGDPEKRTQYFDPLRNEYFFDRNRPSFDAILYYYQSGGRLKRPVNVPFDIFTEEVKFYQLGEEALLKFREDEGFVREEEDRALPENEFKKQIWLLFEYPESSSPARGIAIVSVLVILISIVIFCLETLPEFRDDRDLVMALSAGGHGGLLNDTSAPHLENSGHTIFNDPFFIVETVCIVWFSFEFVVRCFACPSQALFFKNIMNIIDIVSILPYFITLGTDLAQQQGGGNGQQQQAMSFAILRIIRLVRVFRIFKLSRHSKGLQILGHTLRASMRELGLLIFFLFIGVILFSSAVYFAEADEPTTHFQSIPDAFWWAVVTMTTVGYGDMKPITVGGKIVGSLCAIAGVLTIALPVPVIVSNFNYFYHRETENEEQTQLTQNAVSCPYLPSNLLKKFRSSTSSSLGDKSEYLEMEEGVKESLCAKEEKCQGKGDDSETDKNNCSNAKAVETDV
Assay: Whole-cell patch-clamp, Kv1.4
pKd: −log10 of the molar value.
PROPERTY LABEL: pKd

COc1c(C(C)=O)c(OCc2ccc(COc3c(C(C)=O)c(OC)c4ccoc4c3OC)cc2)c(OC)c2occc12 [compound 4]; 5.66

====

Target: Kv1.3 (UniProt P16390)
Assay: Whole-cell patch-clamp block of Kv1.3 current
Details: L929 cells stably expressing mKv1.3 or activated human T cells; fit of normalized peak current to Hill equation
pKd: −log10 of the molar value.
pKd values by entry
PROPERTY LABEL: pKd

COc1c(C(C)=O)c(OCCOCCOc2c(C(C)=O)c(OC)c3ccoc3c2OC)c(OC)c2occc12; 5.40
COc1c(C(C)=O)c(OCCCCCCOc2c(C(C)=O)c(OC)c3ccoc3c2OC)c(OC)c2occc12; 6.17
COC(=O)c1cc(COc2c(C(C)=O)c(OC)c3ccoc3c2OC)ccc1COc1c(C(C)=O)c(OC)c2ccoc2c1OC; 5.52
COc1c(C(C)=O)c(OCc2ccc(COc3c(C(C)=O)c(OC)c4ccoc4c3OC)c(C(=O)O)c2)c(OC)c2occc12; 5.30
COc1c(C(C)=O)c(OCc2ccc(COc3cc4occc4c(OC)c3C(C)=O)cc2)cc2occc12; 5.96
COc1c(C(C)=O)c(OCCCCCOc2c(C(C)=O)c(OC)c3ccoc3c2OC)c(OC)c2occc12; 6.09
COc1c(C(C)=O)c(O)c(OC)c2occc12; 4.15
O=c1ccc2cc3ccoc3c(OCc3ccc(COc4c5occc5cc5ccc(=O)oc45)cc3)c2o1 [compound 3, reference compound]; 4.77
COc1c(C(C)=O)c(OCc2cccc(COc3c(C(C)=O)c(OC)c4ccoc4c3OC)c2)c(OC)c2occc12 [compound 5, reference compound]; 6.25
COc1c2occc2cc2ccc(=O)oc12; 3.80
COc1c(C(C)=O)c(OCc2ccc(COc3c(C(C)=O)c(OC)c4ccoc4c3OC)cc2)c(OC)c2occc12; 6.55
COc1c(C(C)=O)c(OCc2ccccc2COc2c(C(C)=O)c(OC)c3ccoc3c2OC)c(OC)c2occc12 [compound 6, reference compound]; 5.15

====

Molecular target: UniProt P22460
Sequence (P22460 whole entry): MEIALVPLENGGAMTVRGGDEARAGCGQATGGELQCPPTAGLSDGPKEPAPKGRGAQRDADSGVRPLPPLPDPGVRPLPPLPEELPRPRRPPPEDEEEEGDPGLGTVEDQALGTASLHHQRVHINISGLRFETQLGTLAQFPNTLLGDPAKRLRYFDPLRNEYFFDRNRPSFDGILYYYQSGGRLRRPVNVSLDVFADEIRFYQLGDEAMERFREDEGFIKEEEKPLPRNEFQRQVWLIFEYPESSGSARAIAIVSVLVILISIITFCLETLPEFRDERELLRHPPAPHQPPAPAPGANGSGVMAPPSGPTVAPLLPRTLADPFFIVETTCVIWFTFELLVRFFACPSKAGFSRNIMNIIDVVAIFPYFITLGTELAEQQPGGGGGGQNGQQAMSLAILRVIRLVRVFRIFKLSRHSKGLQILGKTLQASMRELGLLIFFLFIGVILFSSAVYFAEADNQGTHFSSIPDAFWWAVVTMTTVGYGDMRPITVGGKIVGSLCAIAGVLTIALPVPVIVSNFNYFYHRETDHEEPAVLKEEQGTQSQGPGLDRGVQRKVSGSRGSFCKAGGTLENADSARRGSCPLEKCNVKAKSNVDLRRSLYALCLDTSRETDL
Test: Whole-cell patch-clamp, Kv1.5
PROPERTY LABEL: Kd

COc1c(C(C)=O)c(OCc2ccc(COc3c(C(C)=O)c(OC)c4ccoc4c3OC)cc2)c(OC)c2occc12; 1100 nM

====

Target: UniProtKB Q09470
Sequence (Q09470 whole entry): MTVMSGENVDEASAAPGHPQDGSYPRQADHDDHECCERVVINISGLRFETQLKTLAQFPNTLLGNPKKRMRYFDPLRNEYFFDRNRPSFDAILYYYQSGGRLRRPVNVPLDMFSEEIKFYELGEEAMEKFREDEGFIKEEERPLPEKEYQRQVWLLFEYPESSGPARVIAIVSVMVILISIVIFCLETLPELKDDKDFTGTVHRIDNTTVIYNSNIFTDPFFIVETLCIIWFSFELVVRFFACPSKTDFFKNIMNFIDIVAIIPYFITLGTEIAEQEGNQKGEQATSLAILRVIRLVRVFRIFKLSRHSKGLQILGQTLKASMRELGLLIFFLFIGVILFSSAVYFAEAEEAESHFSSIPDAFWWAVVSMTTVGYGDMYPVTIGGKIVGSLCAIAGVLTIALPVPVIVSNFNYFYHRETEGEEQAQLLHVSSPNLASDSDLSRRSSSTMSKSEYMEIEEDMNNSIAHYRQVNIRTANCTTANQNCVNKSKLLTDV
Test: Whole-cell patch-clamp, Kv1.1
pKd: −log10 of the molar value.
pKd values by entry
PROPERTY LABEL: pKd

COc1c(C(C)=O)c(OCc2ccc(COc3c(C(C)=O)c(OC)c4ccoc4c3OC)cc2)c(OC)c2occc12 [compound 4]; 5.52
COc1c(C(C)=O)c(OCCCCCCOc2c(C(C)=O)c(OC)c3ccoc3c2OC)c(OC)c2occc12 [Example 2]; 6.49

Source: patent US7507839B2
